Reference source for all entries: BindingDB's records for doi:10.1016/j.bmcl.2016.07.066

assay: Inhibition of HCV genotype 1b replicons NS5A infected in human Huh7 cells by luciferase reporter gene assay
measuredEndpoint: EC50 (pM)

The examples below pair each entry with its known result.
COC(=O)N[C@H](NC(=O)N1CCC[C@H]1c1nc2ncc(-c3ccc4cc(-c5cnc([C@@H]6CCCN6C(=O)[C@@H](NC(=O)OC)C(C)C)[nH]5)ccc4c3)cc2[nH]1)C(C)C    26
CC[C@@H](C)[C@H](NC(=O)OC)NC(=O)N1CCC[C@H]1c1nc2ccc(-c3ccc4cc(-c5cnc([C@@H]6CCCN6C(=O)[C@@H](NC(=O)OC)[C@H](C)CC)[nH]5)ccc4c3)cc2[nH]1    9
COC(=O)N[C@H](NC(=O)N1CCC[C@H]1c1ncc(-c2ccc(-c3ccc(-c4cnc([C@@H]5CCCN5C(=O)[C@@H](NC(=O)OC)C(C)C)[nH]4)cc3)cc2)[nH]1)C(C)C    73
COC(=O)N[C@@H](NC(=O)N1CCC[C@H]1c1nc2ccc(-c3ccc4cc(-c5cnc([C@@H]6CCCN6C(=O)[C@@H](NC(=O)OC)C(C)C)[nH]5)ccc4c3)cc2[nH]1)c1ccccc1    11
COC(=O)N[C@H](NC(=O)N1CCC[C@H]1c1nc2ccc(-c3ccc4cc(-c5cnc([C@@H]6CCCN6C(=O)[C@H](NC(=O)OC)c6ccccc6)[nH]5)ccc4c3)cc2[nH]1)C(C)C    14
CC[C@H](C)[C@H](NC(=O)OC)NC(=O)N1CCC[C@H]1c1nc2ccc(-c3ccc4cc(-c5cnc([C@@H]6CCCN6C(=O)[C@@H](NC(=O)OC)[C@@H](C)OC)[nH]5)ccc4c3)cc2[nH]1    15
COC(=O)N[C@H](NC(=O)N1CCC[C@H]1c1nc2ccc(-c3ccc4cc(-c5cnc([C@@H]6CCCN6C(=O)[C@@H](NC(=O)OC)C(C)C)[nH]5)ccc4c3)nc2[nH]1)C(C)C    25
COC(=O)N[C@H](NC(=O)N1CCC[C@H]1c1nc2ccc(-c3ccc4cc(-c5cnc([C@@H]6CCCN6C(=O)[C@@H](NC(=O)OC)C6CCOCC6)[nH]5)ccc4c3)cc2[nH]1)C(C)C    30

A: COC(=O)N[C@H](NC(=O)N1CCC[C@H]1c1nc2ccc(-c3ccc4cc(-c5cnc([C@@H]6CCCN6C(=O)[C@@H](NC(=O)OC)C(C)C)[nH]5)ccc4c3)cc2[nH]1)C1CCOCC1
B: COC(=O)N[C@H](NC(=O)N1CCC[C@H]1c1nc2ccc(-c3ccc4cc(-c5cnc([C@@H]6CCCN6C(=O)[C@@H](NC(=O)OC)C6CCCC6)[nH]5)ccc4c3)cc2[nH]1)C1CCCC1
**Q:** Returns the identifier with the smallest measured EC50 among A and B . Give the label under which the chosen entry appears.
**A:** B
(B: 3 pM, A: 23 pM)

* * *

assay: Inhibition of HCV genotype 3a replicon NS5A
measuredEndpoint: EC50 (nM)
// return numeric value only (unit: nM, not printed)

**Q:** Endpoint output: EC50 of COC(=O)N[C@H](NC(=O)N1CCC[C@H]1c1ncc(-c2ccc(-c3ccc(-c4cnc([C@@H]5CCCN5C(=O)[C@@H](NC(=O)OC)C(C)C)[nH]4)cc3)cc2)[nH]1)C(C)C . Value?
**A:** 0.146

* * *

assay: Inhibition of HCV genotype 1a replicons NS5A infected in human Huh7 cells by luciferase reporter gene assay
pEC50: −log10 of the molar value.
measuredEndpoint: pEC50

COC(=O)N[C@H](NC(=O)N1CCC[C@H]1c1nc2ccc(-c3ccc4cc(-c5cnc([C@@H]6CCCN6C(=O)[C@@H](NC(=O)OC)C6CCOCC6)[nH]5)ccc4c3)cc2[nH]1)C1CCOCC1    9.89
CC[C@H](C)[C@H](NC(=O)OC)NC(=O)N1CCC[C@H]1c1nc2ccc(-c3ccc4cc(-c5cnc([C@@H]6CCCN6C(=O)[C@@H](NC(=O)OC)[C@@H](C)CC)[nH]5)ccc4c3)cc2[nH]1    9.96

a: COC(=O)N[C@@H](NC(=O)N1CCC[C@H]1c1nc2ccc(-c3ccc4cc(-c5cnc([C@@H]6CCCN6C(=O)[C@@H](NC(=O)OC)C(C)C)[nH]5)ccc4c3)cc2[nH]1)c1ccccc1
b: COC(=O)N[C@H](NC(=O)N1CCC[C@H]1c1nc2ccc(-c3ccc4cc(-c5cnc([C@@H]6CCCN6C(=O)[C@@H](NC(=O)OC)C6CCCC6)[nH]5)ccc4c3)cc2[nH]1)C1CCCC1
**Q:** pEC50 comparison. Which is larger, a or b ? Kindly give the label for the entry you pick.
**A:** b
(b: 10.30, a: 9.96)
